Tested on: SN12C renal
testName: NCI tumour cell line growth inhibition, 48 h; in the data active = GI50 below about 0.43 µM; inactive = the rest
One label from this list, please: t = active, f = inactive

{"compound": "CN1C(=O)/C(=C/c2c(Cl)[nH]c3ccccc23)c2ccccc21", "experimentalSystem": "SN12C renal", "answerLabel": "f"}

Q. What outcome does the record of this test show for CCN(CC)CCOc1nc2c3ccc(Cl)cc3nn2c2ccccc12 ?
A. f

Q. What outcome does the record of this test show for Nc1cc(N)c2nc(-c3ccccc3)c(Sc3ccc(Cl)c(Cl)c3)nc2c1 ?
A. f

Q. What outcome does the record of this test show for CC(C)OP(=O)(OC(C)C)C([CH2][Sn]([CH3])([CH3])[Cl])P(=O)(OC(C)C)OC(C)C ?
A. f

Q. What outcome does the record of this test show for COc1cc(-c2cc(/C=C/C(=O)c3ccc(N)cc3)[nH]n2)cc(OC)c1OC ?
A. f

Q. What outcome does the record of this test show for C[C@H](O)CNc1cc(-c2[nH]c3cccnc3c2-c2ccc(F)cc2)ccn1 ?
A. f

Q. What outcome does the record of this test show for CC(C)CCC[C@@H](C)[C@H]1CCC2C3=CCn4c(=O)ccc(=O)n4C3CC[C@@]21C (some centres undefined) ?
A. f

Q. What outcome does the record of this test show for COc1cc(C2C3=C(COC3=O)Oc3cc4c(cc32)OCO4)cc(OC)c1OC (centres undefined) ?
A. t

Q. What outcome does the record of this test show for Cc1cc(C(=O)NC(C)(C)C)cc(C#Cc2ccc3c4c(oc3c2)C(C)(C)c2cc(NS(C)(=O)=O)ccc2C4=O)n1 ?
A. f

* * *

Attribute: TGI
Test system: MALME-3M melanoma
testName: NCI tumour cell line growth inhibition, 48 h
Where a SMILES comes first, the peptide text is derived from it. [ ]: non-standard residue; d: D form. The star is where a group is joined. Phe(4-NO2) = N[CH](Cc1ccc([N+](=O)[O-])cc1)C(=O)O; Boc = CC(C)(C)OC(=O)*; OtBu = CC(C)(C)O*

Q. // lookup TGI for Brc1ccc2[nH]cc([C@H]3CN[C@@H](c4c[nH]c5ccc(Br)cc45)CN3)c2c1
A. 15 µM

Q. // lookup TGI for COP1(=O)OCc2cnccc2O1 (stereo not drawn)
A. > 100 µM

Q. // lookup TGI for CC(=O)CC(O)(C(F)(F)Cl)C(F)(F)Cl
A. > 10 µM

Q. // lookup TGI for Cc1cn(C2CC(n3cncn3)C(C(C)O)O2)c(=O)[nH]c1=O (stereo not drawn)
A. > 100 µM

Q. // lookup TGI for CNN1C(=O)c2c(N)c(C#N)c(-c3ccccc3)c(-c3ccccc3)c2C1=O
A. > 100 µM

Q. // lookup TGI for COc1ccc2c(c1)CN1C(=N2)CSC1c1c(Cl)cccc1[N+](=O)[O-] (stereo not drawn)
A. > 100 µM

Q. // lookup TGI for O=c1c(O)c(-c2ccccc2)n(O)c2ccc(Cl)cc12
A. > 100 µM

Q. // lookup TGI for CN1C(=O)N(C)C2C1NN=c1s/c(=C\c3ccccc3F)c(=O)n12 (stereo not drawn)
A. > 100 µM

Q. // lookup TGI for CC(=O)NC(CCC(=O)OC(C)(C)C)C(=O)NC(CCC(=O)OC(C)(C)C)C(=O)NC(Cc1ccc([N+](=O)[O-])cc1)C(=O)NC(CCCCNC(=O)OC(C)(C)C)C(=O)NC(CCCCNC(=O)OC(C)(C)C)C(=O)NCC(=O)O (stereo not drawn) (Ac-E(OtBu)E(OtBu)[Phe(4-NO2)]K(Boc)K(Boc)G-OH; configuration not given here)
A. > 100 µM

Q. // lookup TGI for CCN(CC)CCOc1nc2c3ccc(Cl)cc3nn2c2ccccc12
A. 3.22 µM
